target: T1, ICAM1-Fc (R&D Systems) (human, UniProt P05362 28-480); assay: ELISA on coated ICAM1-Fc, 150 ng IgG1; None 0.060
T1 construct: Bought; also called ICAM-1/CD54; not shown: Fc of the bought fusion protein
T1 sequence (P05362 28-480): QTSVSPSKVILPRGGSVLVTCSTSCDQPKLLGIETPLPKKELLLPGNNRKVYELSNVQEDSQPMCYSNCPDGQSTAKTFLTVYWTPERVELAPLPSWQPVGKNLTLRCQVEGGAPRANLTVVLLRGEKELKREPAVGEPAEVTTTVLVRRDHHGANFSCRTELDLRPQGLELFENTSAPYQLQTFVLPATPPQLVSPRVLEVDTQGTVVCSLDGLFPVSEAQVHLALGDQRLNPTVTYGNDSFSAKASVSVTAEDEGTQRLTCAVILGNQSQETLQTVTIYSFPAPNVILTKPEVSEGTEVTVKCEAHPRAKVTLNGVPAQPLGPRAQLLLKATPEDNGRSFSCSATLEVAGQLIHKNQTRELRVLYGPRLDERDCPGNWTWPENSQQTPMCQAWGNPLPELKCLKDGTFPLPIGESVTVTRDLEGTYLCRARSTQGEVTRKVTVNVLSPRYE
Readout label: ELISA Absorbance (405 nm-570 nm)
Give the figure only, with no unit attached.

Name the recorded ELISA Absorbance (405 nm-570 nm) for HW-97 chimeric rabbit-human IgG1 LA/LA/PG (antibody, V domains shown, Fc-silenced (L234A/L235A/P329G) IgG1, lambda; Alexa Fluor 647-labeled in single-step flow cytometry; Prototype of cluster C-97) VH: QKQLVESGGRLVTPGTPLTLTCTVTGIDLSSHGMSWVRQAPGKGLEWIGVIYPSGSTWYASWARGRFTISKTSTTVDLKMTSLTTEDTATHFCARGDVGGADNNIWGPGTLVTVSS VL: SFVLTQPASVQVDLGQTVSLTCTAETLSRSYASWYQQKPGQAPVLLIYRDTSRPSGVPDRFSGSSSGNTATLTISGAQAGDEADYYCATSDGSGSSYQYVFGGGTQLTVTG . 0.081

Query: ELISA Absorbance (405 nm-570 nm); subject: HW-81 chimeric rabbit-human IgG1 LA/LA/PG (antibody, V domains shown, Fc-silenced (L234A/L235A/P329G) IgG1, lambda; Alexa Fluor 647-labeled in single-step flow cytometry; Cluster C-45) VH: QKQLVESGGGLVTPGGTLTLTCTVSGFSLSSNGVSWVRQAPGKGLEYIGLIRSIGSTYYATWAKGRFTISKTSTTVDLKITSPTTEDTATYFCARGGYRNGFKLWGPGTLVTVSS VL: QPVLTQSPSVSAALGASAKLTCTLSSAHKTYYIEWYQQQHPGKAPRYLMQLQSDGSYTKGTGVPDRFSGSSSGADRYLIISSVQAEDEADYICGVIDSAVYVFGGGTQLTVTG 0.051

Can you share its ELISA Absorbance (405 nm-570 nm)? I mean this binder: HW-42 chimeric rabbit-human IgG1 LA/LA/PG (antibody, V domains shown, Fc-silenced (L234A/L235A/P329G) IgG1, lambda; Alexa Fluor 647-labeled in single-step flow cytometry; Cluster C-1) VH: QSVKESEGGLFKPADTLTLTCTVSGFSLSSNEISWVRQAPGEGLEYIGIIDTGGRAYYAVWARSRSTITRNTNLNTVTLKMTSLTAADTATYFCARGGVDTEWYAFSSWGPGTLVTVPS VL: SFVLTQPASVQVNLGQTVSLTCTADTLSRRYASWYQQKPGQAPVLLIFRDTSRPSGVPDRFSGSSSGDTATLTISGAQAGDEADYYCATSDGSGSNYQYVFGGGTQLTVTG 0.082

Query: ELISA Absorbance (405 nm-570 nm); subject: HW-16 chimeric rabbit-human IgG1 LA/LA/PG (antibody, V domains shown, Fc-silenced (L234A/L235A/P329G) IgG1, kappa; Alexa Fluor 647-labeled in single-step flow cytometry; Cluster C-45) VH: QSLEESGGRLVTPGTPLTLTCTASGFSLSSYAMSWVRQAPGKGLEWIGTMPTGGGTYYASWAKGRFTISKTSTTVDLQITSPTTEDTATYFCAKHWNIWGPGTLVTISS VL: DIVLTQTPSSTSTAVGDTVTINCRASQSIGRNLAWFQQKPGQPPKLLIYRASNLASGVPSRFKGSGSRTQFTLTISGVQREDAATYYCLGSYSSSDTAFGGGTELEILR 0.055

Quick one: ELISA Absorbance (405 nm-570 nm) of HW-1 chimeric rabbit-human IgG1 LA/LA/PG (antibody, V domains shown, Fc-silenced (L234A/L235A/P329G) IgG1, lambda; Alexa Fluor 647-labeled in single-step flow cytometry; Prototype of cluster C-1) VH: QSLEESGGGLFKPTDTLTLTCTASGFSLGSSYAISWVRQAPGKELEWIGTIDSGRAYYARWAKSRSTITRNTNENTVTLKMTSLTAADTATYFCARDLIPTYSQDIWGPGTLVTISS VL: SFVLTQPASVQVNLGQTVSLTCTADTLSRRYASWYQQKPGQAPVLLIYRDTSRPSGVPDRFSGSSSGNTATLTISGAQAGDEADYYCATSDGSGNSYQYVFGGGTQLTVTS ? 0.065
